Assayed target: h-GABAA α2β2γ1 (Homo sapiens, UniProt P47869+Q8N1C3)
Protocol: Radioligand binding assay, [3H]RO7239181 competition, HEK293F membranes
Parameters: signal peptide of human GABAA α5 subunit (Met1 to Ser31), replacing the α2 signal peptide (N); expressed in transfected cells; host or cells: HEK293F cells (ThermoFisher R79007), membranes
pKi: −log10 of the molar value.
Quick rule: pKi of at least 8 means YES, below that means NO.

# Molecule, Classification
measured = [
    ("Cc1nnc2n1-c1ccccc1C(c1c(F)cccc1F)=NC2 [RE-C, reference compound]", "NO"),
    ("Cc1nnc2n1-c1ccc(C(F)(F)F)cc1C(c1c(F)cccc1F)=NC2 [RE-B, reference compound]", "NO"),
    ("Fc1cccnc1C1=NCc2nnc(C3CC3)n2-c2ccc(Br)c(Cl)c21", "NO"),
    ("Fc1cccc(F)c1C1=NCc2nnc(-c3cccnn3)n2-c2ccc(I)c(Cl)c21", "YES"),
    ("COc1ccc2c(c1Cl)C(c1c(F)cccc1F)=NCc1nnc(-c3cccnc3)n1-2", "NO"),
    ("COc1nnc2n1-c1ccc(Cl)c(Cl)c1C(c1c(F)cccc1F)=NC2", "YES"),
]

###

Assayed target: h-GABAA α5β2γ1 (Homo sapiens, UniProt P31644+Q8N1C3)
Protocol: Radioligand binding assay, [3H]RO7239181 competition, HEK293F membranes
Description: The affinity of compounds at GABAA γ1 subunit-containing receptors was measured by competition for [^3H]RO7239181 (67.3 Ci/mmol; Roche) binding to membranes from HEK293F cells (ThermoFisher R79007) expressing human (transiently transfected) receptors of composition […], α2β2γ1, α1β2γ1. […]
Mark rule met for Ki under 5 nM, rule not met if at or over.

# Molecule, Classification
records = [
    ("Cc1ccc2c(c1Cl)C(c1c(F)cccc1F)=NCc1nnc(-c3cccnn3)n1-2 [Example 48]", "rule met"),
    ("Fc1cccc(F)c1C1=NCc2nnc(-c3ccncn3)n2-c2ccc(Br)c(Br)c21 [Example 43]", "rule met"),
    ("Fc1ccccc1C1=NCc2nnc(C3CC3)n2-c2ccc(Br)c(Cl)c21 [Example 2]", "rule not met"),
    ("Fc1cccnc1C1=NCc2nnc(-c3cccnn3)n2-c2ccc(Br)c(Cl)c21 [Example 45]", "rule met"),
    ("Cc1ccc2c(c1Cl)C(c1c(F)cccc1F)=NCc1nncn1-2 [Example 17]", "rule met"),
    ("O=c1[nH]nc2n1-c1ccc(Cl)c(Cl)c1C(c1c(F)cccc1F)=NC2 [Example 9]", "rule met"),
    ("Cc1nnc2n1-c1ccc(Cl)c(Cl)c1C(c1c(F)cccc1F)=NC2 [Example 5]", "rule met"),
    ("COc1ccc2c(c1Cl)C(c1c(F)cccc1F)=NCc1nnc(-c3cccnn3)n1-2 [Example 57]", "rule met"),
    ("Clc1cccnc1C1=NCc2nnc(-c3ccncn3)n2-c2ccc(Br)c(Cl)c21 [Example 44]", "rule met"),
    ("Fc1cccc(F)c1C1=NCc2nnc(-c3ccncn3)n2-c2ccc(Cl)c(Cl)c21 [Example 12]", "rule met"),
    ("Fc1ccccc1C1=NCc2nncn2-c2ccc(Br)c(Cl)c21 [Example 8]", "rule met"),
    ("Cc1nnc2n1-c1ccc(I)c(Cl)c1C(c1c(F)cccc1F)=NC2 [Example 41]", "rule met"),
    ("Fc1cccc(F)c1C1=NCc2nncn2-c2ccc(I)c(Cl)c21 [Example 34]", "rule met"),
    ("CC(F)(F)c1ccc2c(c1Cl)C(c1c(F)cccc1F)=NCc1nncn1-2 [Example 21]", "rule met"),
    ("Cc1nnc2n1-c1ccc(Cl)c(Cl)c1C(c1ccccc1F)=NC2 [Example 4]", "rule not met"),
    ("Cc1ccc2c(c1Cl)C(c1c(F)cccc1F)=NCc1nnc(-c3ccncn3)n1-2 [Example 49]", "rule met"),
    ("Fc1cccc(F)c1C1=NCc2nncn2-c2ccc(Br)c(Cl)c21 [Example 7]", "rule met"),
    ("Fc1cccnc1C1=NCc2nnc(-c3cccnn3)n2-c2ccc(Cl)c(Cl)c21 [Example 54]", "rule met"),
    ("Fc1cccnc1C1=NCc2nnc(-c3cccnn3)n2-c2ccc(C(F)(F)F)c(Cl)c21 [Example 72]", "rule not met"),
    ("Fc1ccccc1C1=NCc2nnc(-c3cccnn3)n2-c2ccc(C(F)(F)F)c(Cl)c21 [Example 27]", "rule not met"),
    ("Fc1ccccc1C1=NCc2nnc(-c3ccncn3)n2-c2ccc(Cl)c(Cl)c21 [Example 18]", "rule met"),
    ("Fc1cccc(F)c1C1=NCc2nncn2-c2ccc(Cl)c(Cl)c21 [Example 15]", "rule met"),
    ("Cc1nnc2n1-c1ccc(Br)c(Cl)c1C(c1ncccc1F)=NC2 [Example 24]", "rule met"),
    ("COc1ccc2c(c1Cl)C(c1c(F)cccc1F)=NCc1nnc(-c3ccncn3)n1-2 [Example 61]", "rule met"),
    ("Cn1cc(-c2nnc3n2-c2ccc(C(F)(F)F)c(Cl)c2C(c2ncccc2F)=NC3)cn1 [Example 70]", "rule not met"),
    ("Cc1nnc2n1-c1ccc(Br)c(Cl)c1C(c1c(F)cccc1Cl)=NC2 [Example 50]", "rule met"),
    ("Cc1nnc2n1-c1ccc(C3CC3)c(Cl)c1C(c1c(F)cccc1F)=NC2 [Example 6]", "rule not met"),
    ("Fc1cccc(F)c1C1=NCc2nncn2-c2ccc(C(F)F)c(Cl)c21 [Example 23]", "rule not met"),
    ("COCCc1nnc2n1-c1ccc(Cl)c(Cl)c1C(c1c(F)cccc1F)=NC2 [Example 19]", "rule met"),
    ("Fc1cccnc1C1=NCc2nnc(C3CC3)n2-c2ccc(Cl)c(Cl)c21 [Example 65]", "rule not met"),
    ("Fc1cccc(F)c1C1=NCc2nnc(-c3cccnn3)n2-c2ccc(Cl)c(Cl)c21 [Example 14]", "rule met"),
    ("Fc1cccc(F)c1C1=NCc2nnc(-c3cccnn3)n2-c2ccc(I)c(Cl)c21 [Example 39]", "rule met"),
    ("Fc1cccnc1C1=NCc2nnc(-c3ccncn3)n2-c2ccc(Cl)c(Cl)c21 [Example 55]", "rule not met"),
    ("Fc1cccc(F)c1C1=NCc2nnc(-c3cccnn3)n2-c2ccc(Br)c(Cl)c21 [Example 104]", "rule met"),
    ("Cc1nnc2n1-c1ccc(Cl)c(Cl)c1C(c1ncccc1F)=NC2 [Example 71]", "rule not met"),
]

###

Assayed target: h-GABAA α1β2γ1 (Homo sapiens, UniProt P14867+Q8N1C3)
Protocol: Radioligand binding assay, [3H]RO7239181 competition, HEK293F membranes
Measured Ki by item

# Smiles text, Assayed target, Unit abbreviation, Ki
rows = [
    ("Fc1ccccc1C1=NCc2nnc(C3CC3)n2-c2ccc(Br)c(Cl)c21", "h-GABAA α1β2γ1 (Homo sapiens, UniProt P14867+Q8N1C3)", "µM", 0.0775),
    ("COc1ccc2c(c1Cl)C(c1c(F)cccc1F)=NCc1nnc(-c3cccnn3)n1-2", "h-GABAA α1β2γ1 (Homo sapiens, UniProt P14867+Q8N1C3)", "µM", 0.17),
    ("Cc1nnc2n1-c1ccc(C3CC3)c(Cl)c1C(c1c(F)cccc1F)=NC2", "h-GABAA α1β2γ1 (Homo sapiens, UniProt P14867+Q8N1C3)", "µM", 0.237),
    ("Fc1cccc(F)c1C1=NCc2nnc(-c3cccnn3)n2-c2ccc(C(F)(F)F)c(Cl)c21", "h-GABAA α1β2γ1 (Homo sapiens, UniProt P14867+Q8N1C3)", "µM", 0.028),
    ("Fc1ccccc1C1=NCc2nnc(-c3cccnn3)n2-c2ccc(Br)c(Cl)c21", "h-GABAA α1β2γ1 (Homo sapiens, UniProt P14867+Q8N1C3)", "µM", 0.0261),
    ("O=c1[nH]nc2n1-c1ccc(Cl)c(Cl)c1C(c1ncccc1F)=NC2", "h-GABAA α1β2γ1 (Homo sapiens, UniProt P14867+Q8N1C3)", "µM", 0.054),
    ("Fc1ccccc1C1=NCc2nncn2-c2ccc(Br)c(Cl)c21", "h-GABAA α1β2γ1 (Homo sapiens, UniProt P14867+Q8N1C3)", "µM", 0.0438),
    ("CO[C@H]1C[C@H](c2nnc3n2-c2ccc(Cl)c(Cl)c2C(c2c(F)cccc2F)=NC3)C1", "h-GABAA α1β2γ1 (Homo sapiens, UniProt P14867+Q8N1C3)", "µM", 0.0513),
    ("Fc1cccc(F)c1C1=NCc2nncn2-c2ccc(Cl)c(Cl)c21", "h-GABAA α1β2γ1 (Homo sapiens, UniProt P14867+Q8N1C3)", "µM", 0.0115),
    ("Fc1cccc(F)c1C1=NCc2nnc(C3CCOCC3)n2-c2ccc(Cl)c(Cl)c21", "h-GABAA α1β2γ1 (Homo sapiens, UniProt P14867+Q8N1C3)", "µM", 0.0603),
    ("Cc1nnc2n1-c1ccc(Br)c(Cl)c1C(c1c(F)cccc1Cl)=NC2", "h-GABAA α1β2γ1 (Homo sapiens, UniProt P14867+Q8N1C3)", "µM", 0.0089),
    ("Cc1ccc2c(c1Cl)C(c1c(F)cccc1F)=NCc1nncn1-2", "h-GABAA α1β2γ1 (Homo sapiens, UniProt P14867+Q8N1C3)", "µM", 0.0477),
    ("Fc1cccc(F)c1C1=NCc2nnc(-c3cccnn3)n2-c2ccc(I)c(Cl)c21", "h-GABAA α1β2γ1 (Homo sapiens, UniProt P14867+Q8N1C3)", "µM", 0.0047),
    ("Cc1nnc2n1-c1ccc(C(C)(F)F)c(Cl)c1C(c1c(F)cccc1F)=NC2", "h-GABAA α1β2γ1 (Homo sapiens, UniProt P14867+Q8N1C3)", "µM", 0.0687),
    ("Clc1cccnc1C1=NCc2nnc(-c3cccnn3)n2-c2ccc(Br)c(Cl)c21", "h-GABAA α1β2γ1 (Homo sapiens, UniProt P14867+Q8N1C3)", "µM", 0.007),
    ("Fc1cccc(F)c1C1=NCc2nnc(-c3cccnn3)n2-c2ccc(Br)c(Cl)c21", "h-GABAA α1β2γ1 (Homo sapiens, UniProt P14867+Q8N1C3)", "µM", 0.0042),
    ("Cc1ccc2c(c1Cl)C(c1c(F)cccc1F)=NCc1n[nH]c(=O)n1-2", "h-GABAA α1β2γ1 (Homo sapiens, UniProt P14867+Q8N1C3)", "µM", 0.0227),
    ("COc1ccc2c(c1Cl)C(c1c(F)cccc1F)=NCc1nnc(C3CC3)n1-2", "h-GABAA α1β2γ1 (Homo sapiens, UniProt P14867+Q8N1C3)", "µM", 0.0801),
]

From: patent US20230141603A1
